- System: Beet Armyworm (Spodoptera exigua)
- PROTOCOL_DETAILS: Insecticidal test for beet armyworm, treated lepidopteran diet
- Format: in vivo
- Parameters: key: A: 90–100; B: 80–89; C: 70–79; D: 60–69; E: 50–59; F: less than 50; G: Inactive
- ASSAY_CONTEXT: on diet surface, second-instar larvae, 5 days
EXPERIMENTAL_READOUT: BAW: activity at 400 ppm against beet armyworm (% control rating)

INSERT INTO measurements (molecule, study_target, result) VALUES
  ('Cc1c(-c2nc(-c3c(F)cccc3Cl)nn2C)csc1-c1cccc(C(F)(F)F)c1F', 'Beet Armyworm (Spodoptera exigua)', 'G'),
  ('Cc1sc(-c2ccc(OC(F)(F)C(F)C(F)(F)F)cc2)c(C)c1-c1nc(-c2c(F)cccc2Cl)nn1C (stereo not drawn)', 'Beet Armyworm (Spodoptera exigua)', 'A (90–100)'),
  ('Cc1c(-c2ccc(OC(F)(F)C(F)Cl)cc2)csc1-c1nc(-c2c(F)cccc2Cl)nn1C (stereo not drawn)', 'Beet Armyworm (Spodoptera exigua)', 'A (90–100)'),
  ('Cn1nc(-c2c(F)cccc2Cl)nc1-c1sc(-c2ccc(OC(F)(F)C(F)Br)cc2)cc1Cl (stereo not drawn)', 'Beet Armyworm (Spodoptera exigua)', 'A (90–100)'),
  ('Cc1c(-c2ccc(OC(F)(F)C(F)Br)cc2)csc1-c1nc(-c2c(F)cccc2Cl)nn1C (stereo not drawn)', 'Beet Armyworm (Spodoptera exigua)', 'A (90–100)'),
  ('Cc1c(-c2nc(-c3c(F)cccc3Cl)nn2C)csc1-c1ccc(OC(F)(F)F)cc1F', 'Beet Armyworm (Spodoptera exigua)', 'A (90–100)'),
  ('Cc1c(-c2nc(-c3c(F)cccc3Cl)nn2C)csc1-c1ccc(OC(F)(F)C(F)F)cc1', 'Beet Armyworm (Spodoptera exigua)', 'A (90–100)'),
  ('Cc1cc(-c2ccc(OC(F)(F)C(F)C(F)(F)F)cc2)sc1-c1nc(-c2c(F)cccc2Cl)nn1C (stereo not drawn)', 'Beet Armyworm (Spodoptera exigua)', 'A (90–100)'),
  ('Cc1c(-c2nc(-c3c(F)cccc3Cl)nn2C)csc1-c1ccc(F)cc1F [drawing 224]', 'Beet Armyworm (Spodoptera exigua)', 'G');

* * *

- System: Beet Armyworm (Spodoptera exigua)
- PROTOCOL_DETAILS: Insecticidal test for beet armyworm, treated lepidopteran diet
- Assay type: in vivo
- Parameters: key: A: 90–100; B: 80–89; C: 70–79; D: 60–69; E: 50–59; F: less than 50; G: Inactive
- ASSAY_CONTEXT: on diet surface, second-instar larvae, 5 days
EXPERIMENTAL_READOUT: BAW: activity at 400 ppm against beet armyworm (% control rating)

INSERT INTO measurements (compound, result) VALUES
  ('Cn1nc(-c2c(F)cccc2Cl)nc1-c1cc(-c2ccc3c(c2)OCC3)sc1Cl', 'G'),
  ('Cc1c(-c2nc(-c3c(F)cccc3Cl)nn2C)csc1-c1cc(C(F)(F)F)ccc1F', 'G'),
  ('Cc1c(-c2nc(-c3c(F)cccc3Cl)nn2C)csc1-c1ccc(C(F)(F)F)cc1F', 'A (90–100)'),
  ('Cc1cc(-c2ccc(OC(F)(F)C(F)Cl)cc2)sc1-c1nc(-c2c(F)cccc2Cl)nn1C (centres unmarked)', 'A (90–100)'),
  ('Cn1nc(-c2c(F)cccc2Cl)nc1-c1cc(-c2ccc(C(F)(F)F)cc2F)sc1Cl', 'A (90–100)');

FYI, the data here is from patent US7056940B2.
